Just for reference, paper PMC6149664 is where these values come from.

# Assay type: physicochemical
Please respond with reported RM, lipophilicity index (RP-TLC) for every item in the list.
One number for each entry.

The cases that follow already have their RM, lipophilicity index (RP-TLC) on record.
> print(dat)
                                   compound  experimental.result
1  CCCOC(=O)Nc1ccc(C(O)CN2CCN(c3ccccc3F)CC2)cc1.Cl (stereo not shown)                 0.39
2  CCCCOC(=O)Nc1ccc(C(O)CN2CCN(c3ccccc3F)CC2)cc1.Cl (stereo not shown)                 0.63
3  CCOC(=O)Nc1ccc(C(O)CN2CCN(c3ccccc3F)CC2)cc1.Cl (stereo not shown)                 0.19

Kindly review the next compound as well.
Input line: What does the data say about its RM, lipophilicity index (RP-TLC)? Entry: CCCCOC(=O)Nc1cccc(C(O)CN2CCN(c3ccccc3F)CC2)c1.Cl (stereo not shown)
Output line: 0.01
